Assay: yeast display, Sf9 membrane polyspecificity reagent, FACS + sequencing; frameworks hold sequencing errors

{"SEQ STRING": "QVQLVESGGGLVQAGGSLRLSCAASGIIFGRNAMGWYRQAPGKERELVAAIRWSGGSTYYADSVKGRFTISRDNAKNTVYLQMNSLKPEDTAVYYCAKRYSYWSGVKYGYWGQGTQVTVSS", "polyreactivity (PSR sort gate)": "high polyreactivity"}
{"SEQ STRING": "QVQLVESGGGLVQAGGSLRLSCADSGSTPVYAMGWYIQAPGKERELVAAIRRRASSTYYADSVKGRLTISRDNAKNTVYLQMNSLKPEDTAVYYCAVGRLNGVLLGYWGQGTQVTVSS", "polyreactivity (PSR sort gate)": "high polyreactivity"}
{"SEQ STRING": "QVQLVESGGGLVQAGGSLRLSCAASGSTFLGNVMGWYRQAPGKERELVAAITSTGGNTYYADSVKGRFTISRDNAKNTVYLQMNSLKPEDTAVYYCAKKYVWTHNYWGQGTQVTVSS", "polyreactivity (PSR sort gate)": "low polyreactivity"}
{"SEQ STRING": "QVQLVESGGGLVQAGGSLRLSCAASGSIFWGYAMGWYRQAPGKERELVASSTNYADSVKGRFTISRDNAKNTVYLQMNSLKPEDTAVYYCAREQGVNRNHDYWGQGTQVTVSS", "polyreactivity (PSR sort gate)": "low polyreactivity"}
{"SEQ STRING": "QVQLVESGGGLVQAGGSLRLSCAASGRIFRFYAMGWYRQAPGKDRELVAAISSRGGSTYYADSVTGRFTISRDNAKNTVYLQMNSLKPEDTAVYYCAKRSQKAYKYRDYRFDYWGQGTQVTVSS", "polyreactivity (PSR sort gate)": "high polyreactivity"}
{"SEQ STRING": "QVQLVESGGGLLQAGGSLRLSCAASGSIFSRYVMGWYRQAPGKERELVAGISGSGGSTYYADSVKGRFTISRDNAKNTVYLQMNSLKPEDTAVYYCNAATSRLYYNHYTRYNYWGQGTQVTVSS", "polyreactivity (PSR sort gate)": "high polyreactivity"}
{"SEQ STRING": "QVQLVESGGCLVQAGGSLRLSCAASGFIFSSYAMGWYRQAPGKERELVAAISVSGGSTNYADSVKGRFTISRDNAKNTVFLQMNSLKPEDTAVYYCAARVRDSLVYGGWDDYWGQGTQVTVSS", "polyreactivity (PSR sort gate)": "high polyreactivity"}
{"SEQ STRING": "QVQLVESGGGLVQAGGSLRLSCAASGFTFWYYSMGWYRQAPGKERELVASISRTGGTTYYADSVKGRFTISRDNAKNTVYLQLNSLKPEDTAVYYCNARPKVYYREYDYWGQGTQVTVSS", "polyreactivity (PSR sort gate)": "high polyreactivity"}
{"SEQ STRING": "QVQLVESGGGLVQPGGSLRLSCAASGYTSSPYAMGWYRQAPGKERELVAGISSGGSTYADSVKGRFTISRDNAKNTVYLQMISLKPEDTAVYYCADVWYYWTFEFDYWGQGTQVTVSS", "polyreactivity (PSR sort gate)": "high polyreactivity"}
{"SEQ STRING": "QVQLVESGGGLVQAGGSLRLSCAASGITFRTNTMGWYRQAPGKERELVAAITRSGVTTYYADSVKGRFTISRDNAKNTVYLQMNSLKPEDTAVYYCAARSTKYLYGYWGQGTQVTVSS", "polyreactivity (PSR sort gate)": "high polyreactivity"}
{"SEQ STRING": "QVQLVESGGGLVQAGGSLRLSCAASGLTFARNAMGWYRQAPGKERELVAAISSGGSTYYADSVKGRFTISRDNAKNPVYLQMNSLKPEDTAVYYCAARPIPRYYGKFWRVDYWGQGTQVTVSS", "polyreactivity (PSR sort gate)": "high polyreactivity"}
{"SEQ STRING": "QVQLVESGGGLVQAGGSLRLSCAASGSTFVYYTMGCYRPAPGKETELVAAINGSGGSTYYADSVKRRFTISRDNAKNTVYLQMNSLKPEDTAVYYCDAVYWDGDDYWGQGTQVTVSS", "polyreactivity (PSR sort gate)": "high polyreactivity"}
{"SEQ STRING": "QVQHVESGGGLVQAGGSLRLSCAASGIIFLFYAMGWYRQARGKERELVAAITGAGSTNYADSVKGRFTISRDNAKNTVYLQMNRLKPEDTAVYYCAARHYARYDYWGQGTQVTVSS", "polyreactivity (PSR sort gate)": "low polyreactivity"}
{"SEQ STRING": "QVQLQEGGGGLVQAGGSLRLSCAASGYISYGDVMGWYRQAPGEERELVASIGLDATTNYADSVKGRFTISRDNAKITVYVQMNSLKPEDTAVYYCAADVGSGVLCGYWGQGTQMTVSS", "polyreactivity (PSR sort gate)": "high polyreactivity"}
{"SEQ STRING": "QVQLVESGGGLVQAGGSLRLSCAASGITFKYYAMGWYRQAPGKERELVAAISRGGTTSYADSVKGRFTISRDNAKNTVYLQMNSLKPEETAVYYCAAKYWWYPYFTVDYDYWGQGTQVTVSS", "polyreactivity (PSR sort gate)": "high polyreactivity"}
{"SEQ STRING": "QVQLVESGGGLVQAGGSLRLSCAASGRTSPRYAMGWYRQAPGKEREWVASISGSGGRTYYADSVKGRFTISRDNAKNTVYLQMNSLKPEDTAVYYCAASTQGNYYPYKRYDYCGQGTQVTVSS", "polyreactivity (PSR sort gate)": "high polyreactivity"}
{"SEQ STRING": "QVQLVESGGGLVQAGGSLRLICAASGNIFTTYAMGWYRQAPGKERELVAAISRTGGRTSYADSVKGRFTISRDNAKNTVYLQMNSLKPEDTAVYYCAAVPTVRPSAPRARILSDYWGQGTQVTVSS", "polyreactivity (PSR sort gate)": "high polyreactivity"}
{"SEQ STRING": "QVQLVESGGGLVQAGGSLRLICAASGSTILVYAMGCYRQAPWKEMELVAAITQIDGSTYYADSVKGRFTISRDNAKNTVYLQMNSLKPEDTAVFYCAARFFWTYEYDYWGQATQVTVSS", "polyreactivity (PSR sort gate)": "low polyreactivity"}
{"SEQ STRING": "QFQLVESGGGLVHAGGSLRLICAASGRILYKYAMGWYRQAPGKERELVAAISGSGGRTYYADSVKGRFTISRDNAKNTVYLQMNSLKPEDTPVYYCAAVHPFRHVMYDYWGQGTQVTVSS", "polyreactivity (PSR sort gate)": "low polyreactivity"}
{"SEQ STRING": "QVQLVESGGGLVQAGGSLRLSCAASGSIFNRNAMGWYRQAPGKERELVAAISNSGARTYYADSVKGRFTISRDNAKNTVYLQMNSLKPEDTAVYYCNDVRRRSKLYNYWGQGTQVTVSS", "polyreactivity (PSR sort gate)": "high polyreactivity"}
{"SEQ STRING": "QVQLVESGGGLVQAGGSLRLSCAASGSIFPYAMGWYRQAPGKERELVAVISWSGASTYYADSVKGRFTISRDNAKNTVYLQMNSLKPEDTAVYYCAVYRYYKLVHLYGYDYWGQGTQVTVSS", "polyreactivity (PSR sort gate)": "high polyreactivity"}
